Below is a list of entries, each paired with its recorded solubility value.
- Assay Protocol: Assessment of solubility: HT solubility in pION buffer, UV spectrophotometry
- Experimental Context: pION system solution buffer, pH 7.4, pH 7.4, aqueous buffer, kinetic from dmso stock, Solubility (pH 7.4), pH 7.4 buffer, 16-19 h incubation, 1.0% DMSO

These solved cases illustrate the format of a correct answer.
Compound: Cc1cc(C(=O)N2CCCCC2)ccc1COc1ccc(Cl)cc1-c1csc(N2CC3C(C2)C3C(=O)O)n1 (centres unmarked)
Observed Result: > 55 µg/mL
--
Compound: Cc1cc(CN2CCS(=O)(=O)CC2)ccc1COc1ccc(F)cc1-c1csc(N2CCC(C(=O)O)CC2C)n1 (centres unmarked)
Observed Result: > 58 µg/mL
--
Compound: COCCN(C)Cc1ccc(COc2ccc(C)cc2-c2csc(N3CCC(C(=O)O)CC3)n2)c(C#N)c1
Observed Result: > 64 µg/mL
--
Compound: Cc1ccc(OCc2ccc(C(=O)N3CCCCC3)cc2C)c(-c2csc(N3CCC(C(=O)O)CC3)n2)c1
Observed Result: > 53 µg/mL
--
Compound: Cc1ccc(OCc2ccc(CN3CCS(=O)(=O)CC3)cc2C)c(-c2csc(N3CCC(C(=O)O)CC3)n2)c1
Observed Result: > 68 µg/mL
--
Compound: Cc1cc(CN2CCOCC2)ccc1COc1ccccc1-c1csc(N2CCC(C(=O)O)C(C)C2)n1 (centres unmarked)
Observed Result: > 59 µg/mL
--
Compound: Cc1cc(CN2CCS(=O)(=O)CC2)ccc1COc1ccccc1-c1csc(N2CCC(C(=O)O)CC2C(F)(F)F)n1 (centres unmarked)
Observed Result: > 62 µg/mL
--
Compound: Cc1cc(CN2CCOCC2)ccc1COc1ccc(F)cc1-c1csc(N2CCC(C(=O)O)CC2C)n1 (centres unmarked)
Observed Result: > 61 µg/mL
--
Compound: Cc1cc(CN2CCCC(C(N)=O)C2)ccc1COc1c(C)cccc1-c1csc(N2CCC(C(=O)O)CC2)n1 (centres unmarked)
Observed Result: > 56 µg/mL
--
Compound: Cc1ccc(OCc2ccc(C(=O)N3CCC(F)(F)CC3)cc2C)c(-c2csc(N3CCC(C(=O)O)CC3)n2)c1
Observed Result: > 56 µg/mL

Query string: Answer with the recorded solubility for the compound listed here: Cc1ccc(OCc2ccc(C(=O)N3CCC(O)CC3)cc2C#N)c(-c2csc(N3CCC(C(=O)O)CC3)n2)c1
Result string: > 56 µg/mL

Query string: Answer with the recorded solubility for the compound listed here: Cc1ccc(OCc2ccc(CN3CCN(C(=O)C4CCOC4)CC3)cc2C)c(-c2csc(N3CCC(C(=O)O)CC3)n2)c1 (centres unmarked)
Result string: > 71 µg/mL

Query string: Answer with the recorded solubility for the compound listed here: Cc1ccc(OCc2ccc(C(=O)N3CCCCC3)cc2C)c(-c2csc([C@H]3CC[C@H](C(=O)O)CC3)n2)c1
Result string: > 53 µg/mL

Query string: Answer with the recorded solubility for the compound listed here: Cc1ccc(OCc2ccc(C(=O)N(C)CCC(C)(C)O)cc2C)c(-c2csc(N3C[C@H]4CC[C@@H](C3)[C@H]4C(=O)O)n2)c1
Result string: 37 µg/mL

###

- Assay Protocol: Assessment of solubility: HT solubility in pION buffer, UV spectrophotometry
- Experimental Context: pION system solution buffer, pH 7.4, pH 7.4, aqueous buffer, kinetic from dmso stock, Solubility (pH 7.4), pH 7.4 buffer, 16-19 h incubation, 1.0% DMSO
Metric: solubility (µg/mL)

Compound: Cc1ccc(OCc2ccc(C(=O)N3CCCCC3)cc2C)c(-c2csc(C3=CCC(C(=O)O)CC3)n2)c1 (stereo not shown)
solubility / µg/mL: 29

(a) Cc1ccc(OCc2ccc(CN3CCS(=O)(=O)CC3)cc2C)c(-c2csc(N3CC[C@]4(C(=O)O)C[C@@H]4C3)n2)c1
(b) Cc1cc(CN2CCOCC2)ccc1COc1ccc(Cl)cc1-c1csc(N2CCC(C(=O)O)CC2C)n1 (stereo not shown)
Query string: Hi there! Just curious which has the higher solubility between a and b . Bench note: the answer is the label of the chosen record.
Result string: a
